# Test system: Oryza sativa (ORYZA)
# MEASUREMENT DESCRIPTION: Pre-emergence effects on crop plants, section D (Table D3)
# Format: in vivo
# CONDITION DESCRIPTION: application rate 80 g/ha; visual grading after ca. 3 weeks
MEASUREMENT NAME: pre-emergence activity against ORYZA in % (crop plant damage) (%)
Entry rule: numbers only, all in %.

Previously resolved entries follow.
MOLECULE: O=C(C1CCCC1)N1CSc2cc(Br)c(-c3ccccc3F)nc21
QUANTITATIVE RESULT: 10
//
MOLECULE: CC(C)C(=O)N1C[S+]([O-])c2cc(Br)c(-c3ccccc3)nc21 (centres unmarked)
QUANTITATIVE RESULT: 20
//
MOLECULE: Cc1cc2c(nc1-c1ccccc1F)N(C(=O)C1CC1)CS2
QUANTITATIVE RESULT: 10
//
MOLECULE: Fc1ccccc1-c1nc2c(cc1Br)SCN2
QUANTITATIVE RESULT: 20

Here's the next entry for you.
For record Cc1cc2c(nc1-c1ccccc1F)N(C(=O)C1(C)CC(Cl)=NO1)CS2 (centres unmarked) the listed pre-emergence activity against ORYZA in % (crop plant damage) is 20

---

# Tested on: Alopecurus myosuroides (ALOMY)
# MEASUREMENT DESCRIPTION: Herbicidal pre-emergence action, section A (Table A2)
# Format: in vivo
# CONDITION DESCRIPTION: Alopecurus myosuroides, pre-emergence, 504 h; application rate 1280 g/ha; visual grading after ca. 3 weeks vs untreated controls; read-out: pre-emergence activity against ALOMY in %
MEASUREMENT NAME: pest or weed control at 1280 g/ha
Quote the value and follow it with the unit of measurement.

COMPOUND: CC(=O)N1CSc2cc(Br)c(-c3ccccc3Cl)nc21 [Example I-055]
pest or weed control at 1280 g/ha: 90%
--
COMPOUND: Clc1ccccc1-c1nc2c(cc1Br)SCN2 [Example I-041]
pest or weed control at 1280 g/ha: 90%

Alopecurus myosuroides (ALOMY) pest or weed control at 1280 g/ha of CCS(=O)(=O)N1CSc2cc(C)c(-c3ccccc3F)nc21 [Example I-060] is 90%

Measured pest or weed control at 1280 g/ha (Alopecurus myosuroides (ALOMY)), entry Cc1cc2c(nc1-c1ccccc1F)NCS2 [Example I-007] : 100%

// assay Alopecurus myosuroides (ALOMY), entry Cc1cc2c(nc1-c1cccc(F)c1F)NCS2 [Example I-029] , pest or weed control at 1280 g/ha value = 90%

The value of pest or weed control at 1280 g/ha recorded for CCS(=O)(=O)N1C[S+]([O-])c2cc(C)c(-c3ccccc3C)nc21 (stereo not shown) [Example I-074] when tested on Alopecurus myosuroides (ALOMY) reads 90%

Alopecurus myosuroides (ALOMY) pest or weed control at 1280 g/ha of CC1(C(=O)N2CSc3cc(Br)c(-c4ccccc4Cl)nc32)CC(Cl)=NO1 (stereo not shown) [Example I-141] is 90%

---

# Tested on: Triticum aestivum (TRZAS)
# MEASUREMENT DESCRIPTION: Pre-emergence effects on crop plants, section D (Table D2)
# Type: in vivo
# CONDITION DESCRIPTION: application rate 80 g/ha; visual grading after ca. 3 weeks
MEASUREMENT NAME: pre-emergence activity against TRZAS in % (crop plant damage) (%)
Return type: number; implicit unit %.

// solved cases for pre-emergence activity against TRZAS in % (crop plant damage) follow
MOLECULE: Cc1cc2c(nc1-c1ccccc1F)N(C(=O)C13CCCC1C(Cl)=NO3)CS2 (stereo not drawn)
QUANTITATIVE RESULT: 0
//
MOLECULE: CC(=O)N1CSc2cc(Br)c(-c3ccccc3Cl)nc21
QUANTITATIVE RESULT: 0
//
MOLECULE: CCS(=O)(=O)N1C[S+]([O-])c2cc(C)c(-c3ccccc3C)nc21 (stereo not drawn)
QUANTITATIVE RESULT: 0

Attention now turns to another entry.
Entry CS(=O)(=O)N1C[S+]([O-])c2cc(Br)c(-c3ccccc3Cl)nc21 (stereo not drawn) , tested on Triticum aestivum (TRZAS), has a reported pre-emergence activity against TRZAS in % (crop plant damage) of 0

---

# System: Polygonum convolvulus (POLCO)
# MEASUREMENT DESCRIPTION: Herbicidal pre-emergence action, section C (Table C7)
# Assay type: in vivo
# CONDITION DESCRIPTION: application rate 320 g/ha; visual grading after ca. 3 weeks
MEASUREMENT NAME: pre-emergence activity against POLCO in % (%)
Value expressed in %; do not type the unit.

Worked examples follow.
MOLECULE: Cc1ccccc1-c1nc2c(cc1C)SCN2C(=O)C1(C)CC(Cl)=NO1 (stereo not drawn)
QUANTITATIVE RESULT: 80

MOLECULE: COCCOCCOCC(=O)N1CSc2cc(Br)c(-c3cccc(F)c3F)nc21
QUANTITATIVE RESULT: 80

MOLECULE: CC1(C(=O)N2CSc3cc(Br)c(-c4ccccc4)nc32)CC(Cl)=NO1 (stereo not drawn)
QUANTITATIVE RESULT: 80

MOLECULE: Cc1cc2c(nc1-c1ccccc1F)N(C(=O)C1(C)CC(Cl)=NO1)CS2 (stereo not drawn)
QUANTITATIVE RESULT: 90

The molecule COCC1(C(=O)N2CSc3cc(C)c(-c4ccccc4F)nc32)CC(Cl)=NO1 (stereo not drawn) , tested on Polygonum convolvulus (POLCO), showed pre-emergence activity against POLCO in % of 90

Measured pre-emergence activity against POLCO in % (Polygonum convolvulus (POLCO)), entry Cc1cc2c(nc1-c1ccccc1)N(C(=O)C1(C)CC(Cl)=NO1)CS2 (stereo not drawn) : 90

---

# Tested on: Poa annua (POAAN)
# MEASUREMENT DESCRIPTION: Herbicidal post-emergence action, section B (Table B7)
# Type: in vivo
# CONDITION DESCRIPTION: Poa annua, post-emergence, 504 h; application rate 1280 g/ha; visual rating about 3 weeks after treatment vs untreated controls; read-out: post-emergence activity against POAAN in %
MEASUREMENT NAME: pest or weed control at 1280 g/ha
Note to self: number, then unit, no commentary.

Examples from the recorded data:
COMPOUND: Cc1cc2c(nc1-c1cccc(F)c1F)NCS2
RESULT: 90%

COMPOUND: CCCC(=O)N1CSc2cc(Br)c(-c3ccccc3Cl)nc21
RESULT: 90%

COMPOUND: CCS(=O)(=O)N1CSc2cc(C)c(-c3ccccc3F)nc21
RESULT: 90%

COMPOUND: Cc1cc2c(nc1-c1ccccc1Cl)N(S(C)(=O)=O)CS2
RESULT: 90%

COMPOUND: CC1(C(=O)N2CSc3cc(Br)c(-c4ccccc4Cl)nc32)CC(Cl)=NO1 (stereo not shown)
RESULT: 90%

COMPOUND: CCS(=O)(=O)N1C[S+]([O-])c2cc(Br)c(-c3ccccc3Cl)nc21 (stereo not shown)
RESULT: 90%

pest or weed control at 1280 g/ha for `Cc1cc2c(nc1-c1ccccc1F)NCS2` is 90%

---

# Tested on: Amaranthus retroflexus (AMARE)
# MEASUREMENT DESCRIPTION: Herbicidal pre-emergence action, section C (Table C11)
# Assay type: in vivo
# CONDITION DESCRIPTION: application rate 80 g/ha; visual grading after ca. 3 weeks
# pre-emergence activity against AMARE in % per record follows
Please answer using a numeric value trailed by its unit.

COMPOUND: CC1(C(=O)N2CSc3cc(Br)c(-c4ccccc4)nc32)CC(Cl)=NO1 (stereo not shown) [Example I-139]
RESULT: 90%

COMPOUND: Cc1ccccc1-c1nc2c(cc1C)SCN2C(=O)C1(C)CC(Cl)=NO1 (stereo not shown) [Example I-137]
RESULT: 90%

Lookup result for COc1ccccc1-c1nc2c(cc1Br)SCN2B(N)N [Example I-087] ; measured pre-emergence activity against AMARE in %: 90%

// Cc1cc2c(nc1-c1ccccc1F)N(C(=O)C13CCCC1C(Cl)=NO3)CS2 (stereo not shown) [Example I-104] : pre-emergence activity against AMARE in % value = 80%

---

# Tested on: Zea mays (ZEAMX)
# MEASUREMENT DESCRIPTION: Pre-emergence effects on crop plants, section D (Table D1)
# Type: in vivo
# CONDITION DESCRIPTION: application rate 320 g/ha; visual grading after ca. 3 weeks
MEASUREMENT NAME: pre-emergence activity against ZEAMX in % (crop plant damage)
The reply must contain the numeric value and, after it, the unit.

Sample CC1(C(=O)N2CSc3cc(Br)c(-c4ccccc4)nc32)CC(Cl)=NO1 (stereo not shown) ; pre-emergence activity against ZEAMX in % (crop plant damage) observed: 20%

The reported value for `BN1CSc2cc(Br)c(-c3ccccc3C)nc21` in terms of pre-emergence activity against ZEAMX in % (crop plant damage) is 10%

Value of pre-emergence activity against ZEAMX in % (crop plant damage) reported for the compound `Cc1cc2c(nc1-c1ccccc1F)N(S(=O)(=O)Cc1ccc(F)cc1)CS2` is 0%

// pre-emergence activity against ZEAMX in % (crop plant damage) lookup, compound = CC(C)C(=O)N1C[S+]([O-])c2cc(Br)c(-c3ccccc3)nc21 (stereo not shown) , result: 20%

// pre-emergence activity against ZEAMX in % (crop plant damage) lookup, compound = `Cc1cc2c(nc1-c1cccc(C)c1F)NCS2` , result: 0%

The compound listed as Cc1cc2c(nc1-c1ccccc1)N(C(=O)C1(C)CC(Cl)=NO1)CS2 (stereo not shown) shows pre-emergence activity against ZEAMX in % (crop plant damage) equal to 0%

According to the records, this compound CCc1ccccc1-c1nc2c(cc1C)[S+]([O-])CN2 (stereo not shown) displays pre-emergence activity against ZEAMX in % (crop plant damage) of 20%
